Read-out: Forkhead box O1 (FOXO1), FOXO1 (gene 2308)
Test: LTEA_HepaRG_FOXO1: Life Technologies and Expression Analysis (LTEA) Assay for Forkhead box O1 (FOXO1) using HepaRG (AID 2283456)
Conditions: mRNA level, 48 h; actives raise or lower the signal
Activity calls are given as the source filed them. Rule for the calls: active = hit-call score of the fitted dose curve at least 0.9, where 1 is the maximum; inactive = score below 0.9.
Classes used: true (1) for active, false (0) for inactive

[[record]]
chem_smiles = "Cc1ccccc1Cl"
answer_label = "false (0)"

[[record]]
chem_smiles = "Cc1ccc(Cl)cc1"
answer_label = "false (0)"

[[record]]
chem_smiles = "FC(F)(F)C(F)(F)C(F)(F)C(F)(F)C(F)(F)C(F)(F)CCI"
answer_label = "false (0)"

[[record]]
chem_smiles = "CCCCCCCCCCO"
answer_label = "false (0)"

[[record]]
chem_smiles = "COCCOCCOC"
answer_label = "true (1)"

[[record]]
chem_smiles = "CCOc1ccc2c(c1)C(C)=CC(C)(C)N2"
answer_label = "false (0)"

[[record]]
chem_smiles = "CCCCc1ccc2c(n1)[C@@H](c1ccc(OC)cc1C[C@H](C)C(=O)O)[C@H](C(=O)O)[C@H]2c1ccc2c(c1)OCO2"
answer_label = "false (0)"

[[record]]
chem_smiles = "Cc1nc(C)nc(N2C[C@@H](C)N(c3ccnc([C@@H](C)O)n3)[C@@H](C)C2)n1"
answer_label = "false (0)"

[[record]]
chem_smiles = "CCCCCCCCCCCCCCCC"
answer_label = "false (0)"

[[record]]
chem_smiles = "Cc1cc(=O)[nH]c(=S)[nH]1"
answer_label = "false (0)"

[[record]]
chem_smiles = "Nc1ccccc1N"
answer_label = "true (1)"

[[record]]
chem_smiles = "CN1CCN(Cc2cc(-c3ccc4[nH]c(=O)oc4c3)co2)[C@@H](c2ccc(F)cc2)C1"
answer_label = "true (1)"

[[record]]
chem_smiles = "NS(=O)(=O)c1cc2c(cc1Cl)NCNS2(=O)=O"
answer_label = "false (0)"

[[record]]
chem_smiles = "O=C(N[C@@H](Cc1ccccc1)[C@@H](O)C(=O)N1C[C@@H](O)[C@@H](O)C1)c1cc2cc(Cl)ccc2[nH]1"
answer_label = "false (0)"

[[record]]
chem_smiles = "CNCc1cc(F)ccc1Oc1ccc(Cl)c(Cl)c1"
answer_label = "false (0)"

[[record]]
chem_smiles = "CCCCCCCCCCC"
answer_label = "false (0)"

